Measured values drawn from paper PMC3961306 for this set.

- ASSAY SYSTEM: panel of more than 300 wild-type and mutant kinases (313 kinase panel) (Homo sapiens)
- PROTOCOL SUMMARY: Kinase profiling in a biochemical assay panel (mobility shift assays and ELISA), %-inhibition at 1 μM; selectivity entropy
- RUN PARAMETERS: kinase EPHB2; compound at 1 μM
MEASURED QUANTITY: %-inhibition of EPHB2
Please provide the amount together with its unit, number first.

Exercise: Determine from records and report %-inhibition of EPHB2 for CC(C)(C)c1nc(-c2cccc(NS(=O)(=O)c3c(F)cccc3F)c2F)c(-c2ccnc(N)n2)s1
Solution: -3.38%

Exercise: Determine from records and report %-inhibition of EPHB2 for Cc1cn(-c2cc(NC(=O)c3ccc(C)c(Nc4nccc(-c5cccnc5)n4)c3)cc(C(F)(F)F)c2)cn1
Solution: 85%

Exercise: Determine from records and report %-inhibition of EPHB2 for COc1cc2c(Nc3ccc(Br)cc3F)ncnc2cc1OCC1CCN(C)CC1
Solution: 96%

Exercise: Determine from records and report %-inhibition of EPHB2 for O=S(=O)(c1cccc2cnccc12)N1CCCNCC1
Solution: -7.43%

Exercise: Determine from records and report %-inhibition of EPHB2 for CCN(CC)CCNC(=O)c1c(C)[nH]c(/C=C2\C(=O)Nc3ccc(F)cc32)c1C
Solution: 81%

Exercise: Determine from records and report %-inhibition of EPHB2 for CO[C@H]1C[C@@H]2CC[C@@H](C)[C@@](O)(O2)C(=O)C(=O)N2CCCC[C@H]2C(=O)O[C@H]([C@H](C)C[C@@H]2CC[C@@H](OCCO)[C@H](OC)C2)CC(=O)[C@H](C)/C=C(\C)[C@@H](O)[C@@H](OC)C(=O)[C@H](C)C[C@H](C)/C=C/C=C/C=C/1C
Solution: -7%

Exercise: Determine from records and report %-inhibition of EPHB2 for CC(=O)Nc1cccc(-n2c(=O)n(C3CC3)c(=O)c3c(Nc4ccc(I)cc4F)n(C)c(=O)c(C)c32)c1
Solution: -8%

Exercise: Determine from records and report %-inhibition of EPHB2 for Cc1ccc(C(=O)Nc2ccc(CN3CCN(C)CC3)c(C(F)(F)F)c2)cc1C#Cc1cnc2cccnn12
Solution: 102%

Exercise: Determine from records and report %-inhibition of EPHB2 for Cc1ccc(Nc2nccc(N(C)c3ccc4c(C)n(C)nc4c3)n2)cc1S(N)(=O)=O
Solution: 16%

Exercise: Determine from records and report %-inhibition of EPHB2 for CNC(=O)c1cc(Oc2ccc(NC(=O)Nc3ccc(Cl)c(C(F)(F)F)c3)c(F)c2)ccn1
Solution: 84%

Exercise: Determine from records and report %-inhibition of EPHB2 for CCCS(=O)(=O)Nc1ccc(F)c(C(=O)c2c[nH]c3ncc(-c4ccc(Cl)cc4)cc23)c1F
Solution: -2.11%

Exercise: Determine from records and report %-inhibition of EPHB2 for COc1cc2nccc(Oc3ccc(NC(=O)C4(C(=O)Nc5ccc(F)cc5)CC4)cc3)c2cc1OC [cabozantinib]
Solution: 96%

Exercise: Determine from records and report %-inhibition of EPHB2 for CS(=O)(=O)CCNCc1ccc(-c2ccc3ncnc(Nc4ccc(OCc5cccc(F)c5)c(Cl)c4)c3c2)o1
Solution: 4.6%

----------
Would you mind telling me the reported %-inhibition of PDK1 of each entry?
- ASSAY SYSTEM: panel of more than 300 wild-type and mutant kinases (313 kinase panel) (Homo sapiens, UniProt O15530)
- Sequence (O15530 1-556): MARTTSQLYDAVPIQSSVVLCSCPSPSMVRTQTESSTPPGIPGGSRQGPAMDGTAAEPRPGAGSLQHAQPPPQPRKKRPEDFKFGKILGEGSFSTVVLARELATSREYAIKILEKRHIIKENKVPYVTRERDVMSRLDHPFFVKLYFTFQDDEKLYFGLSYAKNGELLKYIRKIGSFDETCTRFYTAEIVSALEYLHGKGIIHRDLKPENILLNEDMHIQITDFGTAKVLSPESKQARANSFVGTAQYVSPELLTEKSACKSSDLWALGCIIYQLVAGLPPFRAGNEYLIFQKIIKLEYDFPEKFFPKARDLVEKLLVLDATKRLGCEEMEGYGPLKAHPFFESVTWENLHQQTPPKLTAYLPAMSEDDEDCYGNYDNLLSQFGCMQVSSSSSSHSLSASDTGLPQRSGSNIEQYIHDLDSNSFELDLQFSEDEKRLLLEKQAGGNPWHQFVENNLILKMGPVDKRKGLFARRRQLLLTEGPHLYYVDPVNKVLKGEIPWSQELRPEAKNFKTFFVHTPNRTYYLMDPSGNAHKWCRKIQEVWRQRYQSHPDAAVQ
- PROTOCOL SUMMARY: Kinase profiling in a biochemical assay panel (mobility shift assays and ELISA), %-inhibition at 1 μM; selectivity entropy
- RUN PARAMETERS: kinase PDK1; 1 μM
Number in %, nothing else.

Exercise: Determine from records and report %-inhibition of PDK1 for COc1cc(Nc2c(C#N)cnc3cc(OCCCN4CCN(C)CC4)c(OC)cc23)c(Cl)cc1Cl
Solution: -4.64

Exercise: Determine from records and report %-inhibition of PDK1 for Cc1cn(-c2cc(NC(=O)c3ccc(C)c(Nc4nccc(-c5cccnc5)n4)c3)cc(C(F)(F)F)c2)cn1
Solution: -4.33

Exercise: Determine from records and report %-inhibition of PDK1 for CO[C@H]1C[C@@H]2CC[C@@H](C)[C@@](O)(O2)C(=O)C(=O)N2CCCC[C@H]2C(=O)O[C@H]([C@H](C)C[C@@H]2CC[C@@H](OC(=O)C(C)(CO)CO)[C@H](OC)C2)CC(=O)[C@H](C)/C=C(\C)[C@@H](O)[C@@H](OC)C(=O)[C@H](C)C[C@H](C)/C=C/C=C/C=C/1C
Solution: -8

Exercise: Determine from records and report %-inhibition of PDK1 for O=S(=O)(c1cccc2cnccc12)N1CCCNCC1
Solution: -2.83

Exercise: Determine from records and report %-inhibition of PDK1 for CC(C)(C)c1nc(-c2cccc(NS(=O)(=O)c3c(F)cccc3F)c2F)c(-c2ccnc(N)n2)s1
Solution: -5.38

Exercise: Determine from records and report %-inhibition of PDK1 for C[C@@H](Oc1cc(-c2cnn(C3CCNCC3)c2)cnc1N)c1c(Cl)ccc(F)c1Cl
Solution: -5
